Target: human 5-HT4(a) (Homo sapiens)
Assay: Evaluation of agonistic activity in CHO-K1 cells expressing human 5-HT4(a) (GeneBIAzer HTR4-CRE-bla CHO-K1 cells, beta-lactamase fluorescence ratio, EC50 from 8 concentrations)
Where a name gives a salt, the structure may show the parent alone.
RESULT TYPE: log10 of EC50 (log10 of the value in nM)
Short version: log10 scale, EC50, nM.

INPUT: Query (compound): `CCCc1cc(N2CCC[C@H](NCC(C)C)C2)nc(Nc2ccc(C)c(C#N)c2)n1` ; field requested: log10 of EC50
OUTPUT: -1.18

INPUT: Please look up its log10 of EC50: `CCCc1cc(N2CCC[C@@H](NCC3CC3)C2)nc(Nc2ccc(N)c(C(F)(F)F)c2)n1`
OUTPUT: -2.34

INPUT: May I ask what log10 of EC50 has been recorded for `CCCc1cc(N2CCC[C@@H](NCC3CC3)C2)nc(Nc2cc(N)cc(C(F)(F)F)c2)n1` ?
OUTPUT: -2.20

INPUT: I am curious: what log10 of EC50 value has been reported for `CCCCc1cc(N2CCC[C@@H](NC(C)=O)C2)nc(Nc2ccc(N)c(C#N)c2)n1` ?
OUTPUT: -2.03

INPUT: # lookup: log10 of EC50 of `CCCc1cc(N2CCC[C@@H](NC(C)=O)C2)nc(Nc2cc(N)cc(C#N)c2)n1`
OUTPUT: -2.22

INPUT: Fill in the blank: the reported log10 of EC50 of `CCCc1cc(N2CCC[C@@H](NC)C2)nc(Nc2ccc(F)c(N)c2)n1` is ____.
OUTPUT: -1.82

INPUT: Name the recorded log10 of EC50 for CCCc1cc(N2CCCC3CCCCC32)nc(Nc2cccc(SC)c2)n1 (stereo not drawn) .
OUTPUT: -0.40

INPUT: Which value of log10 of EC50 has been reported for `CCCCc1cc(N2CCC[C@@H](NC(C)=O)C2)nc(Nc2cc(N)cc(C#N)c2)n1` in the records?
OUTPUT: -2.06

INPUT: Would you kindly share the measured log10 of EC50 for `CCCc1cc(N2CCC[C@@H](N)C2)nc(Nc2ccc(N)c(C(F)(F)F)c2)n1` ?
OUTPUT: -1.38

INPUT: Which measured log10 of EC50 value corresponds to `CCCCc1cc(N2CCC[C@@H](NC(C)=O)C2)nc(Nc2ccc(N)c([N+](=O)[O-])c2)n1` ?
OUTPUT: -2.43

INPUT: Give the measured log10 of EC50 of `CCCCc1cc(N2CCC[C@@H](N)C2)nc(Nc2ccc(F)c([N+](=O)[O-])c2)n1` .
OUTPUT: -1.85

INPUT: Name the recorded log10 of EC50 for `CCCCc1cc(N2CCC[C@@H](NC)C2)nc(Nc2ccc(F)c(C#N)c2)n1` .
OUTPUT: -1.85

INPUT: Given the entry `CCCc1cc(N2CCC[C@@H](NC(C)=O)C2)nc(Nc2ccc(N)c(C(F)(F)F)c2)n1` , report its measured log10 of EC50.
OUTPUT: -1.85

INPUT: # get_value(readout='log10 of EC50', item= `CCCCc1cc(N2CCC[C@@H](NCC(C)(C)C)C2)nc(Nc2ccc(C)c(C#N)c2)n1` )
OUTPUT: -1.31

INPUT: Which measured log10 of EC50 value corresponds to `CCCN[C@@H]1CCCN(c2cc(CCC)nc(Nc3cccc(C#N)c3)n2)C1` ?
OUTPUT: -1.35

INPUT: Could you share which log10 of EC50 value was measured for `CCCc1cc(N2CCC[C@@H](NC(=O)CO)C2)nc(Nc2ccc(Cl)c(N)c2)n1` ?
OUTPUT: -1.80

INPUT: Item `CCCc1cc(N2CCNC[C@H]2C)nc(Nc2cc(N)cc(C#N)c2)n1` has what recorded log10 of EC50?
OUTPUT: -2.39

INPUT: Which measured log10 of EC50 value corresponds to CCCc1cc(N2CCC[C@H](NCC)C2)nc(Nc2ccc(C)c(C#N)c2)n1 [Example 296, dihydrochloride] ?
OUTPUT: -1.82

INPUT: Please report the recorded log10 of EC50 for CCCc1cc(N2CCC[C@@H](NCC3CC3)C2)nc(Nc2ccc(C)c(C#N)c2)n1 [Example 217] .
OUTPUT: -1.89

INPUT: Query: log10 of EC50; subject: `CCCCc1cc(N2CCC[C@@H](N)C2)nc(Nc2ccc(Cl)c([N+](=O)[O-])c2)n1`
OUTPUT: -0.47

INPUT: Report log10 of EC50 for CCCc1cc(N2CCCC3CCCCC32)nc(Nc2cccc(OC)c2)n1 (stereo not drawn) please.
OUTPUT: -0.47

INPUT: Fill in the blank: the reported log10 of EC50 of `CCCCc1cc(N2CCC[C@@H](NCCCSC)C2)nc(Nc2ccc(C)c(C#N)c2)n1` is ____.
OUTPUT: -2.04

INPUT: // query log10 of EC50 value for entry CCCc1cc(N2CCCC(NC(C)=O)C2)nc(Nc2ccc(F)c(N)c2)n1 (stereo not drawn)
OUTPUT: -1.74

INPUT: Request the reported log10 of EC50 associated with `CCCCc1cc(N2CCC[C@@H](NC)C2)nc(Nc2ccc(F)c(N)c2)n1`
OUTPUT: -2.18

INPUT: # query: log10 of EC50 of entry CCCc1cc(N2CCCCC2CCO)nc(Nc2cccc(OC)c2)n1 (stereo not drawn)
OUTPUT: -0.34

INPUT: Would you mind telling me what log10 of EC50 value was observed for `CCCc1cc(N2CCC[C@@H](NCC3CC3)C2)nc(Nc2ccc(N)c([N+](=O)[O-])c2)n1` ?
OUTPUT: -2.46

INPUT: Item under review: `CCCc1cc(N2CCCCC2)nc(Nc2ccc3cc[nH]c3c2)n1` . Reported log10 of EC50?
OUTPUT: -1.21

INPUT: Any idea what log10 of EC50 was measured for `CCCc1cc(N2CCC[C@@H](NC(=O)CO)C2)nc(Nc2ccc(F)c(C(F)(F)F)c2)n1` ?
OUTPUT: -1.60

INPUT: Which log10 of EC50 value is on record for `CCCc1cc(N2CCC[C@@H](NCC)C2)nc(Nc2cc(N)cc(C(F)(F)F)c2)n1` ?
OUTPUT: -2.39

INPUT: Dear colleague, I am looking for the recorded log10 of EC50 of the following compound: `CCCCc1cc(N2CCC[C@@H](NC(C)=O)C2)nc(Nc2cc(N)cc(C(F)(F)F)c2)n1`
OUTPUT: -1.85

INPUT: State the recorded log10 of EC50 for this entry: `CCCc1cc(N2CCC[C@@H](NC)C2)nc(Nc2ccc(C)c(C)c2)n1`
OUTPUT: -0.61

INPUT: Quick check: log10 of EC50 of `CCCc1cc(N2CCCCC2)nc(Nc2ccc(C)c([N+](=O)[O-])c2)n1` ?
OUTPUT: -0.82

INPUT: Recorded log10 of EC50 of `CCCCc1cc(N2CCC[C@@H](NC)C2)nc(Nc2ccc(OC)c(N)c2)n1` , please.
OUTPUT: -0.88

====

Target: human 5-HT4(a) (Homo sapiens, UniProt Q13639)
Sequence (Q13639 1-387 isoform Q13639-2): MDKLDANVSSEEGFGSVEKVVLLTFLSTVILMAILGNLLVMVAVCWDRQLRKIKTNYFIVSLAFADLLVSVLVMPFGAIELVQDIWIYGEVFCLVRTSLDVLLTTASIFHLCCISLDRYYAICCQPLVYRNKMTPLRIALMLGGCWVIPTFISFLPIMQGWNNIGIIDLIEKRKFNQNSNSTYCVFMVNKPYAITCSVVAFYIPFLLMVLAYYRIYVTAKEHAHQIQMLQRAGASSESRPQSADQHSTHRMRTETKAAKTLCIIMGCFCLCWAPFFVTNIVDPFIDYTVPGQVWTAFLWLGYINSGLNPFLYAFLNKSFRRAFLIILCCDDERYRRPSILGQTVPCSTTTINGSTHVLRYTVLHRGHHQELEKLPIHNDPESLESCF
Assay: Evaluation of agonistic activity in CHO-K1 cells expressing human 5-HT4(a) (GeneBIAzer HTR4-CRE-bla CHO-K1 cells, beta-lactamase fluorescence ratio, EC50 from 8 concentrations)
Structures can show the parent of a compound that is named as a salt.
RESULT TYPE: EC50 (nM)
Report as a plain number; the unit nM is understood.

INPUT: Lab note: need EC50 with human 5-HT4(a) (Homo sapiens, UniProt Q13639) for entry `CCCCc1cc(N2CCC[C@@H](NC)C2)nc(Nc2cccc(C#N)c2)n1` , please look it up.
OUTPUT: 0.054

INPUT: Fill in the recorded EC50 for this compound, with human 5-HT4(a) (Homo sapiens, UniProt Q13639) as test system: `CCCCN[C@@H]1CCCN(c2cc(CCCC)nc(Nc3ccc(C)c(C#N)c3)n2)C1`
OUTPUT: 0.0097

INPUT: Under human 5-HT4(a) (Homo sapiens, UniProt Q13639): EC50 value of CCCc1cc(N2CCC[C@@H](NC)C2)nc(Nc2ccc(N)c([N+](=O)[O-])c2)n1 [Example 321, dihydrochloride] ?
OUTPUT: 0.0031

INPUT: # query: EC50 | item `CCCCc1cc(N2CCC[C@@H](NC)C2)nc(Nc2ccc(C)c(F)c2)n1` | system: human 5-HT4(a) (Homo sapiens, UniProt Q13639)
OUTPUT: 0.218

INPUT: Form: Entry = CCCc1cc(N2CCCCC2CC)nc(Nc2ccc3cc[nH]c3c2)n1 (centres unmarked) | System = human 5-HT4(a) (Homo sapiens, UniProt Q13639) | EC50 = ____
OUTPUT: 0.12

INPUT: Form field: EC50 recorded for `CCCCc1cc(N2CCC[C@@H](NC(C)=O)C2)nc(Nc2ccc(F)c(C(F)(F)F)c2)n1` with human 5-HT4(a) (Homo sapiens, UniProt Q13639) (enter value)
OUTPUT: 0.017

INPUT: Identify the measured EC50 of `CCCc1cc(N2CCC[C@@H](NC(C)=O)C2)nc(Nc2ccc(F)c(C#N)c2)n1` for human 5-HT4(a) (Homo sapiens, UniProt Q13639).
OUTPUT: 0.025

INPUT: Can you look up EC50 on human 5-HT4(a) (Homo sapiens, UniProt Q13639) for `CCCc1cc(N2CCC[C@@H](NCC3CC3)C2)nc(Nc2ccc(F)c(C#N)c2)n1` ?
OUTPUT: 0.071
